Data provenance: paper PMC8041284

Measurement Target: BTK (Homo sapiens, UniProt Q06187)
Sequence (Q06187 402-655 limits assumed): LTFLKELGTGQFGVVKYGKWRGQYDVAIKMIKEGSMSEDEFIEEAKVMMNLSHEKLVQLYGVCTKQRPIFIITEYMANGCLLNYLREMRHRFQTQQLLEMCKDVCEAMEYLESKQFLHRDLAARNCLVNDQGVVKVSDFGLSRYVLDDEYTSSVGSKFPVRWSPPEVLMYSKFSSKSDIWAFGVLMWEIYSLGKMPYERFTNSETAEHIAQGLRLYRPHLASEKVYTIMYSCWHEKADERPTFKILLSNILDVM
Experiment Notes: biochemical
Recorded Conditions: read-out: BTK inhibition (%), 0.75 uM BTK, […] probe 3l, 15 min preincubation
Value Kind: inhibition at 10 µM (%)
Answers are plain numbers, in %.

Please state inhibition at 10 µM for every molecule in the list that follows.
1. CC[C@H](C)[C@H](NC(=O)[C@H]([C@@H](C)CC)N(C)C(C)=O)C(=O)N[C@H](C(=O)N[C@@H](CC(C)C)C(=O)[C@@]1(C)CO1)[C@@H](C)O [PCM-0215680]
2. NC(=O)Nc1sc(-c2ccc(F)cc2)cc1C(N)=O [PCM-0095452]
3. CC(N)C12CC3CC(CC(C3)C1)C2 (centres unmarked) [PCM-0012697]
4. O=C(O)CCC1CCC(c2cc(F)ccc2F)(S(=O)(=O)c2ccc(Cl)cc2)CC1 (centres unmarked) [PCM-0095325]
5. CC(C)C[C@H](NC(=O)[C@H]1O[C@@H]1C(=O)O)C(=O)NCCCCN=C(N)N [PCM-0215218]
6. COc1cc2nccc(Oc3ccc(NC(=O)Nc4ccc(F)cc4F)c(F)c3)c2cc1OC [PCM-0094996]
7. COC(=O)C1=C(C)NC(C)=C(C(=O)OCC(C)C)C1c1ccccc1[N+](=O)[O-] (centres unmarked) [PCM-0086426]

23.9
96.6
3.1
-15.2
15.4
4.8
31.1

Entry CNc1nc(Nc2cnn([C@H]3CCN(C4COC4)C[C@@H]3F)c2Cl)ncc1C(F)(F)F [PCM-0215360] , inhibition at 10 µM reported as 0
